Each entry below carries its reported %Inh.
- Tested on: HUNK
- measurement parameters: concentration: 1 μM,replicates: in singlicate; n = 1;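 also: KINOMEscan kinase panel screen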
Numbers only; they are read as %.

Value of %Inh reported for the molecule C[C@@H](Oc1cc(-c2cnn(C3CCNCC3)c2)cnc1N)c1c(Cl)ccc(F)c1Cl is 0

Value of %Inh reported for the molecule Cc1ccc(-n2nc(C(C)(C)C)cc2NC(=O)Nc2ccc(OCCN3CCOCC3)c3ccccc23)cc1 [GW839464] is 3

Value of %Inh reported for the molecule CNC(=O)c1ccccc1Sc1ccc2c(/C=C/c3ccccn3)n[nH]c2c1 is 0

====

Each entry below carries its reported %Inh.
- Tested on: FGR
- measurement parameters: concentration: 1 μM,replicates: in singlicate; n = 1
Numbers only; they are read as %.

Reference set (6 entries):
compound: NC(=O)c1cc(-c2ccccc2)cc2c(C3CCNCC3)c[nH]c12 [GSK301362]
test result: 14
--
compound: CN(C)CCOc1ccc(-c2cc(-c3c[nH]nc3-c3ccccn3)ccn2)cc1 [GW835314]
test result: 7
--
compound: CN(C)CC(O)COc1ccc(Nc2nccc(-c3cnn4nc(N5CCOCC5)ccc34)n2)cc1 (stereo not drawn) [GW767488]
test result: 93.5
--
compound: C[C@@H](Oc1cc(-c2cnn(C3CCNCC3)c2)cnc1N)c1c(Cl)ccc(F)c1Cl
test result: 46
--
compound: CC(C)Nc1cc(-c2ccc3c(N)n[nH]c3c2)nc(N)n1 [GSK2221681]
test result: 3
--
compound: C[C@H]1Oc2cc(cnc2N)-c2c(nn(C)c2C#N)CN(C)C(=O)c2ccc(F)cc21
test result: 33

Value of %Inh reported for the compound Cc1cc(C(=O)Nc2ccc(Oc3ccc4nc(NC(=O)C5CC5)cn4n3)cc2)nn1-c1ccccc1 is 59

Value of %Inh reported for the compound C[C@@H]1CCN(C(=O)CC#N)C[C@@H]1N(C)c1ncnc2[nH]ccc12 is 1

Value of %Inh reported for the compound CNC(=O)c1ccccc1Sc1ccc2c(/C=C/c3ccccn3)n[nH]c2c1 is 85

Value of %Inh reported for the compound O=C(NCCNc1ccnc(NCc2ccc(F)cc2)n1)c1cc2ccccc2s1 [GSK1379944] is 29

Value of %Inh reported for the compound Cc1cc2cn[nH]c2cc1-c1cccc2c(N)c(C(N)=O)nnc12 is 50

Value of %Inh reported for the compound Cl.Cl.Nc1nc(-c2ccc3c(N)n[nH]c3c2)cc(N2CCCC(NC(=O)c3ccccc3)C2)n1 (stereo not drawn) [GSK2286775] is 8

Value of %Inh reported for the compound COc1ccc(C[C@@H](CN)NC(=O)c2cc(Br)c(-c3ccnc4[nH]ccc34)s2)cc1.Cl.Cl [GSK1389063] is 53

Value of %Inh reported for the compound Cl.Cl.NC[C@H](Cc1ccc(C(F)(F)F)cc1)NC(=O)c1cc(Br)c(-c2ccnc3[nH]ccc23)s1 [GSK1487252] is 31

Value of %Inh reported for the compound Cc1occc1-c1nc(N)c(OC[C@@H](N)Cc2c[nH]c3ccccc23)cc1-c1cc2c(C)n[nH]c2cn1 [GSK1660450] is 91.6

Value of %Inh reported for the compound Cc1n[nH]c2ccc(-c3cc(OC[C@@H](N)Cc4ccccc4)cnc3-c3ccoc3)cc12.O=C(O)C(F)(F)F.O=C(O)C(F)(F)F [GSK507358] is 45

Value of %Inh reported for the compound O=C(NCCCN1CCOC1=O)c1cnc(NCc2cc(Cl)ccc2Cl)nc1NC1CCCC1 is 29

Value of %Inh reported for the compound CCn1c(-c2nonc2N)nc2c(C#CC(C)(C)O)nc(OCCN)cc21.Cl.Cl [GSK902056] is 30

====

Each entry below carries its reported %Inh.
- System: MAP4K3
- measurement parameters: concentration: 1 μM,replicates: in singlicate; n = 1
Numbers only; they are read as %.

compound: Cl.Cl.Nc1nc(-c2ccc3c(N)n[nH]c3c2)cc(N2CCCC(NC(=O)c3ccccc3)C2)n1 (stereo not shown)
quantity measured: %Inh
test result: 0

compound: C[C@H]1Oc2cc(cnc2N)-c2c(nn(C)c2C#N)CN(C)C(=O)c2ccc(F)cc21
quantity measured: %Inh
test result: 5

compound: Cc1cc(C(=O)Nc2ccc(Oc3ccc4nc(NC(=O)C5CC5)cn4n3)cc2)nn1-c1ccccc1
quantity measured: %Inh
test result: 2

Attention now turns to another entry.
Value of %Inh reported for the compound CCN(CC)CCOc1ccc(Nc2ncc3cc(-c4c(Cl)cccc4Cl)c(=O)n(C)c3n2)cc1 is 99.5

====

Each entry below carries its reported %Inh.
- System: BMPR1A
- measurement parameters: concentration: 1 μM,replicates: in singlicate; n = 1
Numbers only; they are read as %.

Reference set (2 entries):
compound: CCN(CC)CCOc1ccc(Nc2ncc3cc(-c4c(Cl)cccc4Cl)c(=O)n(C)c3n2)cc1
%Inh / %: 100
//
compound: C[C@@H](Oc1cc(-c2cnn(C3CCNCC3)c2)cnc1N)c1c(Cl)ccc(F)c1Cl
%Inh / %: 18

Value of %Inh reported for the compound Cc1n[nH]c2ccc(-c3cc(OC[C@@H](N)Cc4ccccc4)cnc3-c3ccoc3)cc12.O=C(O)C(F)(F)F.O=C(O)C(F)(F)F is 0

Value of %Inh reported for the compound CN(C)CC(O)COc1ccc(Nc2nccc(-c3cnn4nc(N5CCOCC5)ccc34)n2)cc1 (stereo not shown) is 18

Value of %Inh reported for the compound C[C@@H]1CCN(C(=O)CC#N)C[C@@H]1N(C)c1ncnc2[nH]ccc12 is 53

Value of %Inh reported for the compound CN(C)CCOc1ccc(-c2cc(-c3c[nH]nc3-c3ccccn3)ccn2)cc1 is 13

Value of %Inh reported for the compound O=C(NCCCN1CCOC1=O)c1cnc(NCc2cc(Cl)ccc2Cl)nc1NC1CCCC1 is 16

Value of %Inh reported for the compound Cc1cc(C(=O)Nc2ccc(Oc3ccc4nc(NC(=O)C5CC5)cn4n3)cc2)nn1-c1ccccc1 is 3

Value of %Inh reported for the compound CC(C)Nc1cc(-c2ccc3c(N)n[nH]c3c2)nc(N)n1 is 0

Value of %Inh reported for the compound CCn1c(-c2nonc2N)nc2c(C#CC(C)(C)O)nc(OCCN)cc21.Cl.Cl is 6

Value of %Inh reported for the compound Cl.Cl.NC[C@H](CC1CCCCC1)NC(=O)c1cc(Br)c(-c2ccnc3[nH]ccc23)s1 is 0

Value of %Inh reported for the compound CC(C)N1C(=O)Cc2cc(Nc3ncc(C(F)(F)F)c(NCc4cccc(S(C)(=O)=O)c4)n3)ccc21 is 0

Value of %Inh reported for the compound Cc1occc1-c1nc(N)c(OC[C@@H](N)Cc2c[nH]c3ccccc23)cc1-c1cc2c(C)n[nH]c2cn1 is 0

====

- System: RIOK3
- measurement parameters: concentration: 1 μM,replicates: in singlicate; n = 1
%Inh strictly under 10% means rule met; at 10% or over means rule not met.

// known answers, use as guide
compound: O=C(NCCNc1ccnc(NCc2ccc(F)cc2)n1)c1cc2ccccc2s1
class name: rule not met
--
compound: Cc1ccc(-n2nc(C(C)(C)C)cc2NC(=O)Nc2ccc(OCCN3CCOCC3)c3ccccc23)cc1
class name: rule met
--
compound: CNC(=O)c1ccccc1Sc1ccc2c(/C=C/c3ccccn3)n[nH]c2c1
class name: rule met
--
compound: Cl.Cl.NC[C@H](Cc1ccc(C(F)(F)F)cc1)NC(=O)c1cc(Br)c(-c2ccnc3[nH]ccc23)s1
class name: rule not met
--
compound: Cl.Cl.Nc1nc(-c2ccc3c(N)n[nH]c3c2)cc(N2CCCC(NC(=O)c3ccccc3)C2)n1 (stereo not shown)
class name: rule not met

Lab note: %Inh threshold 10%. Does this compound come in strictly under it? C[C@@H](Oc1cc(-c2cnn(C3CCNCC3)c2)cnc1N)c1c(Cl)ccc(F)c1Cl
rule not met

Lab note: %Inh threshold 10%. Does this compound come in strictly under it? CCn1c(-c2nonc2N)nc2c(C#CC(C)(C)O)nc(OCCN)cc21.Cl.Cl
rule met

Lab note: %Inh threshold 10%. Does this compound come in strictly under it? NC(=O)c1cc(-c2ccccc2)cc2c(C3CCNCC3)c[nH]c12
rule not met

Lab note: %Inh threshold 10%. Does this compound come in strictly under it? Cc1cc2cn[nH]c2cc1-c1cccc2c(N)c(C(N)=O)nnc12
rule not met

Lab note: %Inh threshold 10%. Does this compound come in strictly under it? Cc1ccc2c(-c3ccncc3)c(-c3ccc(F)cc3)nn2c1.Cl
rule not met

Lab note: %Inh threshold 10%. Does this compound come in strictly under it? Cc1occc1-c1nc(N)c(OC[C@@H](N)Cc2c[nH]c3ccccc23)cc1-c1cc2c(C)n[nH]c2cn1
rule not met

Lab note: %Inh threshold 10%. Does this compound come in strictly under it? CCN(CC)CCCCNc1ncc2cc(-c3c(Cl)cccc3Cl)c(NC(=O)NC(C)(C)C)nc2n1
rule met

Lab note: %Inh threshold 10%. Does this compound come in strictly under it? CN(C)CCOc1ccc(-c2cc(-c3c[nH]nc3-c3ccccn3)ccn2)cc1
rule met

Lab note: %Inh threshold 10%. Does this compound come in strictly under it? CN(C)CC(O)COc1ccc(Nc2nccc(-c3cnn4nc(N5CCOCC5)ccc34)n2)cc1 (stereo not shown)
rule not met

Lab note: %Inh threshold 10%. Does this compound come in strictly under it? C[C@H]1Oc2cc(cnc2N)-c2c(nn(C)c2C#N)CN(C)C(=O)c2ccc(F)cc21
rule met

Lab note: %Inh threshold 10%. Does this compound come in strictly under it? CC(C)Nc1cc(-c2ccc3c(N)n[nH]c3c2)nc(N)n1
rule not met
